- test_system: CXCR3 (Homo sapiens (Human), UniProt P49682)
- Sequence (P49682 whole entry): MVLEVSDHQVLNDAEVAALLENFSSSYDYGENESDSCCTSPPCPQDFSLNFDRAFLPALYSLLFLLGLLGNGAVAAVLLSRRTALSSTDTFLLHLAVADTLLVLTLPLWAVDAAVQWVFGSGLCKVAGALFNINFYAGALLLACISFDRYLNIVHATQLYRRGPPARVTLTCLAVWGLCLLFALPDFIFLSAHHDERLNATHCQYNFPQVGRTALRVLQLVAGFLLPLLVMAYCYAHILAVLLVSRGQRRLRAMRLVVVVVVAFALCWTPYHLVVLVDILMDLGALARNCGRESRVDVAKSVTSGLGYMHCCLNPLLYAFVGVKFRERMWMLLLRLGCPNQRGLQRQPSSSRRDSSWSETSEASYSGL
- protocol_description: Receptor internalization assay
- Type: cell-based
- test_conditions: human whole blood; final CXCL10 concentration 9 nM; 30 min 37° C.; CXCR3 cell surface expression on CD3 positive cells, flow cytometer; read-out: Internalization IC50
Labelling: IC50 reported below 200 nM becomes satisfied; at or above becomes not satisfied.

Is IC50 strictly under 200 nM for the entry Cc1cc2[nH]c(-c3ncsc3N3CCN(C(=O)Cn4ccc5cccnc54)[C@H](C)C3)nc2cc1Cl [Example 27] ?
not satisfied

Is IC50 strictly under 200 nM for the entry O=C(Cn1ccc2cccnc21)N1CCCN(c2scnc2-c2nc3ccccc3[nH]2)CC1 [Example 44] ?
not satisfied

Is IC50 strictly under 200 nM for the entry COC(=O)c1ccc2[nH]c(-c3nc(C(F)(F)F)sc3N3CCN(C(=O)Cn4cnc5cccnc54)[C@H](C)C3)nc2c1 [Example 167] ?
satisfied

Is IC50 strictly under 200 nM for the entry Cc1nc(C)n(CC(=O)N2CCN(c3sc(C(F)(F)F)nc3-c3nc4c(F)cccc4[nH]3)C[C@H]2C)n1 [Example 230] ?
satisfied

Is IC50 strictly under 200 nM for the entry Cc1nc(C)n(CC(=O)N2CCN(c3sc(C(F)(F)F)nc3-c3nc4ccc(C5CCNCC5)cc4[nH]3)C[C@H]2C)n1 [Example 240] ?
not satisfied

Is IC50 strictly under 200 nM for the entry O=C(Cn1cnc2cccnc21)N1[C@@H]2CC[C@H]1CN(c1scnc1-c1nc3ccccc3[nH]1)C2 [Example 79] ?
not satisfied
